Tested on: A549
Experimental details: MTT cell viability assay, A549
Type: cell-based, human
Run conditions: Homo sapiens; Table S1, A549; read-out: IC50 (mean ± SD)
Readout kind: IC50

Incoming: What value of IC50 has been reported for the following molecule? C=C(C=O)C1CC[C@]2(C)C(CCC3C4C(C(C)C)CC[C@]4(COC(=O)c4ccccc4)CC[C@]32C)[C@@]1(C)CCC#N (stereo partly shown) [compound 4]
Outgoing: > 100 µM

Incoming: What value of IC50 has been reported for the following molecule? CC(C)C1CC[C@]2(CO)CC[C@]3(C)C(CCC4[C@@]5(C)C[C@@H](C#N)C[C@H](O)C5CC[C@]43C)C12 (stereo partly shown) [compound 18]
Outgoing: > 100 µM

Incoming: What value of IC50 has been reported for the following molecule? COC(=O)[C@]12CCC(C(C)C)C1C1CCC3[C@@]4(C)CC(C#N)=C(C)C4CC[C@@]3(C)[C@]1(C)CC2 (stereo partly shown) [compound 23]
Outgoing: > 200 µM

Incoming: What value of IC50 has been reported for the following molecule? COC(=O)[C@]12CCC(C(C)C)C1C1CCC3[C@@]4(C)C[C@@H](C#N)CC(=O)C4CC[C@@]3(C)[C@]1(C)CC2 (stereo partly shown) [compound 17]
Outgoing: > 100 µM

Incoming: What value of IC50 has been reported for the following molecule? C=C1C=C(C#N)C[C@@]2(C)C1CC[C@]1(C)C2CCC2C3C(C(C)C)CC[C@]3(C(=O)OC)CC[C@]21C (stereo partly shown) [compound 10]
Outgoing: > 100 µM

Incoming: What value of IC50 has been reported for the following molecule? CC(C)C1CC[C@]2(CO)CC[C@]3(C)C(CCC4[C@@]5(C)C[C@@H](C#N)CC(=O)C5CC[C@]43C)C12 (stereo partly shown) [compound 16]
Outgoing: > 100 µM

Incoming: What value of IC50 has been reported for the following molecule? COC(=O)[C@]12CCC(C(C)C)C1C1CCC3[C@@]4(C)CC(C#N)=CC(=O)C4CC[C@@]3(C)[C@]1(C)CC2 (stereo partly shown) [compound 15]
Outgoing: > 100 µM

Incoming: What value of IC50 has been reported for the following molecule? CC(C)C1CC[C@]2(CO)CC[C@]3(C)C(CCC4[C@@]5(C)CC(C#N)=CC(=O)C5CC[C@]43C)C12 (stereo partly shown) [compound 14]
Outgoing: 63.2 µM

Incoming: What value of IC50 has been reported for the following molecule? COC(=O)[C@]12CC[C@@H](C(C)C)[C@@H]1[C@H]1CC[C@@H]3[C@@](C)(CCC#N)[C@H](C(=O)C(Br)Br)CC[C@@]3(C)[C@]1(C)CC2 [compound 31]
Outgoing: 7.01 µM

Incoming: What value of IC50 has been reported for the following molecule? COC(=O)[C@]12CCC(C(C)C)C1C1CCC3[C@@](C)(CCC#N)C(C(C)=O)CC[C@@]3(C)[C@]1(C)CC2 (stereo partly shown) [compound 21]
Outgoing: > 100 µM

Incoming: What value of IC50 has been reported for the following molecule? CC(C)C1CC[C@]2(COC(=O)c3ccccc3)CC[C@]3(C)C(CCC4[C@@](C)(CCC#N)C(C(=O)CBr)CC[C@]43C)C12 (stereo partly shown) [compound 28]
Outgoing: > 100 µM

Incoming: What value of IC50 has been reported for the following molecule? CC(C)C1CC[C@]2(COC(=O)c3ccccc3)CC[C@]3(C)C(CCC4[C@@](C)(CCC#N)C(C(=O)C(Br)Br)CC[C@]43C)C12 (stereo partly shown) [compound 29]
Outgoing: > 100 µM

Incoming: What value of IC50 has been reported for the following molecule? C=C(C=O)C1CC[C@]2(C)C(CCC3C4C(C(C)C)CC[C@]4(C(=O)OC)CC[C@]32C)[C@@]1(C)CCC#N (stereo partly shown) [compound 5]
Outgoing: > 100 µM
